These entries and their values trace back to paper PMC5237291.

Assay: Toxicity evaluation on mice not bearing tumor (CBC, serum chemistry, pathology)
Format: in vivo, C57BL/6 mice
Settings: not tumor-bearing C57BL/6 mice, n = 3, daily i.p., 5 days; control 7.14 ± 0.1
Give RBC for every item shown.

# annotated cases, reported RBC shown
Look up RBC for this compound: COc1cccc2c1CCCC2CCCN1CCC(C2CCCCC2)CC1 (stereo not shown) [PB221]
9.59 ± 0.71 10^6/μL

Look up RBC for this compound: Fc1cccc(F)c1[C@H]1CC[C@@H](N2CCN(C3CCCCC3)CC2)CC1 [PB282]
9.91 ± 0.31 10^6/μL

Look up RBC for this compound: COc1cccc2c(CCCN3CCN(C4CCCCC4)CC3)cccc12 [PB183]
9.24 ± 0.9 10^6/μL

Next:
Look up RBC for this compound: COc1cccc2c1CCCC2CCCN1CCN(C2CCCCC2)CC1 (stereo not shown) [PB28]
10.24 ± 0.3 10^6/μL

====

Give Creatinine for every item shown.
Assay: Toxicity evaluation on mice not bearing tumor (CBC, serum chemistry, pathology)
Assay type: in vivo, C57BL/6 mice
Conditions: not tumor-bearing C57BL/6 mice, n = 3, daily i.p., 5 days; control 0.34 ± 0.02
Experimental: […] Mice from each treatment cohort were assessed for pathologic evaluation (Digestive Diseases Research Core Center at our institution). Blood was collected for complete blood count (CBC) and biochemical analysis (AST, ALT, BUN, total protein, glucose and Cr). Organs were examined grossly and histologically.

# annotated cases, reported Creatinine shown
Look up Creatinine for this molecule: `COc1cccc2c(CCCN3CCN(C4CCCCC4)CC3)cccc12`
0.37 ± 0.04 mg/dL

Look up Creatinine for this molecule: COc1cccc2c1CCCC2CCCN1CCC(C2CCCCC2)CC1 (stereo not shown)
0.35 ± 0.03 mg/dL

Look up Creatinine for this molecule: `Fc1cccc(F)c1[C@H]1CC[C@@H](N2CCN(C3CCCCC3)CC2)CC1`
0.35 ± 0.03 mg/dL

Now look at this entry.
Look up Creatinine for this molecule: COc1cccc2c1CCCC2CCCN1CCN(C2CCCCC2)CC1 (stereo not shown)
0.37 ± 0.04 mg/dL

====

Tested on: MIAPaCa-2 cells
Test: MTT cell viability, MIAPaCa-2
Assay type: cell-based
Conditions: Homo sapiens, MIA PaCa-2, 24 h treatment, viability relative to vehicle
quantityMeasured: pEC50
One number for each entry, as −log10 of the molar value.

Look up pEC50 for this compound: `COc1cccc2c(CCCN3CCN(C4CCCCC4)CC3)cccc12`
4.31

Look up pEC50 for this compound: `Fc1cccc(F)c1[C@H]1CC[C@@H](N2CCN(C3CCCCC3)CC2)CC1`
4.29

Look up pEC50 for this compound: `c1ccc2c(c1)c1ccccc1n2CCCN1CCN(C2CCCCC2)CC1`
4.54

Look up pEC50 for this compound: COc1cccc2c1CCCC2CCCN1CCN(C2CCCCC2)CC1 (centres unmarked)
4.29

Next:
Look up pEC50 for this compound: COc1cccc2c1CCCC2CCCN1CCC(C2CCCCC2)CC1 (centres unmarked)
4.30

====

Test: Toxicity evaluation on mice not bearing tumor (CBC, serum chemistry, pathology)
Format: in vivo, C57BL/6 mice
Conditions: not tumor-bearing C57BL/6 mice, n = 3, daily i.p., 5 days; control 260 ± 21
Give ALT for every item shown.
Numbers only, in μ/L.

# annotated cases, reported ALT shown
Look up ALT for this molecule: COc1cccc2c1CCCC2CCCN1CCN(C2CCCCC2)CC1 (stereo not shown) [PB28]
249

Look up ALT for this molecule: Fc1cccc(F)c1[C@H]1CC[C@@H](N2CCN(C3CCCCC3)CC2)CC1 [PB282]
221

Look up ALT for this molecule: COc1cccc2c1CCCC2CCCN1CCC(C2CCCCC2)CC1 (stereo not shown) [PB221]
219

Now look at this entry.
Look up ALT for this molecule: COc1cccc2c(CCCN3CCN(C4CCCCC4)CC3)cccc12 [PB183]
203
